target: WDR5 protein (Homo sapiens (Human), UniProt P61964); assay: Surface Plasmon Resonance (SPR) assay; assay type: binding; conditions: SPR, τ=1/koff; read-out: Residence Time (t, min)
reported property: residence time (min)
# number only, unit min dropped from output

// below: answered molecules
> print(dat)
                                   molecule  unit.symbol  endpoint.result
1  CC1CN(c2ccc(-c3cc(CN4CCOCC4)ccc3F)cc2NC(=O)c2c[nH]c(=O)cc2C(F)(F)F)CCN1C (stereo not drawn)          min             3.07
2  C[C@@H]1CN(c2ccc(-c3cc(CNC4CCCCC4)c(F)cc3F)cc2NC(=O)c2c[nH]c(=O)cc2C(F)(F)F)C[C@H](C)N1C          min             16.4

Proceeding to the next molecule to report its residence time.
Incoming: # get_value(readout='residence time', item= C[C@@H]1CN(c2ccc(-c3cc(CNC4CCCCC4)ccc3F)cc2NC(=O)c2c[nH]c(=O)cc2C(F)(F)F)C[C@H](C)N1C )
Outgoing: 31.9

Entry source: patent US11174250B2
